Reference source for all entries: patent US11925629B2

Some compounds, each annotated with its measured pIC50.
# Test system: HCT116 (colorectal carcinoma, K Ras G13D) cells
# METHOD NOTES: Cell proliferation (Alamar Blue) assay, HCT116
# Format: cell-based, human
# TEST CONTEXT: Homo sapiens, HCT-116, HCT116 cells
pIC50: −log10 of the molar value.

Here are 5 compounds together with their reported answers.
# COMPOUND, METRIC NAME, OBS VALUE
records = [
    ("O=C(NC(CO)c1cccc(Cl)c1)c1cn(-c2ccnc(Nc3ccc4c(c3)CCO4)c2)cn1 (stereo not shown) [Cmpd 163]", "pIC50", "< 5.60"),
    ("COc1cc(Nc2ncc(C)c(-n3ccc(C(=O)N[C@H](CO)c4ccc(F)c(Cl)c4)c3)n2)cc(OC)c1OC [Example 126]", "pIC50", "≥ 7.00"),
    ("Cc1cnc(Nc2ccc3c(c2)OCO3)nc1-n1ccc(C(=O)NC(CO)c2ccc(F)cc2)c1 (stereo not shown) [Example 172]", "pIC50", "6.30 to 6.60"),
    ("Cc1cn(-c2ccnc(Nc3ccc(F)cc3)n2)cc1C(=O)NC(CO)c1cccc(Cl)c1 (stereo not shown) [Example 110]", "pIC50", "< 5.60"),
    ("Cc1cnc(Nc2ccc(F)cc2)nc1-n1ccc(C(=O)NC(CO)c2ccccc2)c1 (stereo not shown) [Example 114]", "pIC50", "6.30 to 6.60"),
]

# input Jot down pIC50 (HCT116 (colorectal carcinoma, K Ras G13D) cells) of Cc1cnc(Nc2ccc3c(c2)CC(=O)N3)nc1-n1ccc(C(=O)NC(CO)c2cccc(Cl)c2)c1 (stereo not shown) [Example 198] .
# output 5.60 to 6.30

# input Jot down pIC50 (HCT116 (colorectal carcinoma, K Ras G13D) cells) of Cc1cnc(NC2CCOCC2)nc1-n1cnc(C(=O)N[C@H](CN)c2cccc(Cl)c2)c1 [Cmpd 225a] .
# output ≥ 7.00

# input Jot down pIC50 (HCT116 (colorectal carcinoma, K Ras G13D) cells) of Cc1cnc(N[C@@H]2CCOC2)nc1-n1cnc(C(=O)N[C@H](CN)c2cccc(Cl)c2)c1 [Example 264] .
# output 6.60 to 7.00

# input Jot down pIC50 (HCT116 (colorectal carcinoma, K Ras G13D) cells) of Cc1cnc(Nc2ccc3c(c2)OCO3)nc1-n1cc(NC(=O)N[C@H](CO)c2ccccc2)cn1 [Cmpd 55] .
# output < 5.60

# input Jot down pIC50 (HCT116 (colorectal carcinoma, K Ras G13D) cells) of Cc1cnc(N[C@@H]2CCOC2)nc1-n1ccc(C(=O)N[C@H](CO)c2cccc(Cl)c2)c1 [Example 162] .
# output 5.60 to 6.30
